# Target System: varicella zoster virus DNA polymerase (Varicella-zoster virus, UniProt P09252)
# Sequence (P09252 whole entry): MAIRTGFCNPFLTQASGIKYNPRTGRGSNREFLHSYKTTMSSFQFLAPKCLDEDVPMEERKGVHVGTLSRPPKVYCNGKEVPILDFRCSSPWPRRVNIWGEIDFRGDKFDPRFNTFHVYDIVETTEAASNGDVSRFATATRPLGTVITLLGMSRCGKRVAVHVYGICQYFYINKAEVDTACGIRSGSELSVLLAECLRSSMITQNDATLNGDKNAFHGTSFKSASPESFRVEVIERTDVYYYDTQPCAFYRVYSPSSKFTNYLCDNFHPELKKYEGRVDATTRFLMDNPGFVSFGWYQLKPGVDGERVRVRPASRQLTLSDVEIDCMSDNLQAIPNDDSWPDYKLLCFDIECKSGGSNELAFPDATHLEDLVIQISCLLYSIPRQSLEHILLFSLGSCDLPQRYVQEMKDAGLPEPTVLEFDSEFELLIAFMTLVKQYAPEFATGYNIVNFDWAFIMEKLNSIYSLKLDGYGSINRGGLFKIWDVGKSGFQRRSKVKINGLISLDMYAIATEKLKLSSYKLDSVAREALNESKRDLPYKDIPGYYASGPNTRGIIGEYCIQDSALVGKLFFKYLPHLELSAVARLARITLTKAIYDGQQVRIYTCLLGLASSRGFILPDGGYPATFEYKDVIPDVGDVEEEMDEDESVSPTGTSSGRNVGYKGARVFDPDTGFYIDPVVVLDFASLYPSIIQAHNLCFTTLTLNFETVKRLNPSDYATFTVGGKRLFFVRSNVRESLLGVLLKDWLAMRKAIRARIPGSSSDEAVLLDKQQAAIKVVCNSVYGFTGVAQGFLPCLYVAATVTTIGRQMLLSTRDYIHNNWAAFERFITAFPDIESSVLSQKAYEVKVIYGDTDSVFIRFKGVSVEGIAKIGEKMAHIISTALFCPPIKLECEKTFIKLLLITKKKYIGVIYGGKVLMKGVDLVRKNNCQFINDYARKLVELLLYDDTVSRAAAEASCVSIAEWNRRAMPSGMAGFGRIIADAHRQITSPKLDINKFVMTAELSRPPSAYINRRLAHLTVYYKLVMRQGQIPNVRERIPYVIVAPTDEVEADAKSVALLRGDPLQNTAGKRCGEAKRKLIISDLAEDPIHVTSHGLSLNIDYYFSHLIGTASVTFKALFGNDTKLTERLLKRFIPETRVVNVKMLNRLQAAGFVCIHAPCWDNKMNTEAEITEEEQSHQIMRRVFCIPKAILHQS
Param label: returns Satisfied when IC50 < 5 nM, returns Not satisfied otherwise, including exact equality.

Below are worked cases with known answers.
{"Compound": "COc1nc(Br)c(O[C@H]2CCN3C(=O)OC[C@@H]3C2)cc1C(=O)NCc1ccc(Cl)cc1 [Int-3]", "Target System": "varicella zoster virus DNA polymerase (Varicella-zoster virus, UniProt P09252)", "Class": "Not satisfied"}
{"Compound": "COc1nc(-c2cnc(C(C)(C)O)s2)c(O[C@H]2CCN3C(=O)OC[C@@H]3C2)cc1C(=O)NCc1ccc(Cl)cc1 [Compound 19]", "Target System": "varicella zoster virus DNA polymerase (Varicella-zoster virus, UniProt P09252)", "Class": "Satisfied"}
{"Compound": "COc1nc(N2CC(F)(F)C2)c(O[C@H]2CCN3C(=O)OC[C@@H]3C2)cc1C(=O)NCc1ccc(Cl)cc1 [Compound 65]", "Target System": "varicella zoster virus DNA polymerase (Varicella-zoster virus, UniProt P09252)", "Class": "Not satisfied"}
{"Compound": "COc1nc(-c2cncnc2)c(O[C@H]2CCN3C(=O)OC[C@@H]3C2)cc1C(=O)NCc1ccc(Cl)cc1 [Compound 38]", "Target System": "varicella zoster virus DNA polymerase (Varicella-zoster virus, UniProt P09252)", "Class": "Not satisfied"}
{"Compound": "COc1nc(-c2cnc(C)o2)c(O[C@H]2CCN3C(=O)OC[C@@H]3C2)cc1C(=O)NCc1ccc(Cl)cc1 [Compound 5]", "Target System": "varicella zoster virus DNA polymerase (Varicella-zoster virus, UniProt P09252)", "Class": "Satisfied"}

Quick check: IC50 of COc1nc(-c2nnc(C3CC3)s2)c(O[C@H]2CCN3C(=O)OC[C@@H]3C2)cc1C(=O)NCc1ccc(Cl)cc1 [Compound 83] under 5 nM?
Not satisfied

Here's an entry: COc1nc(-c2cccnc2)c(O[C@H]2CCN3C(=O)OC[C@@H]3C2)cc1C(=O)NCc1ccc(Cl)cc1 [Compound 40] . Is its IC50 below 5 nM?
Not satisfied

Strictly below 5 nM in IC50? COc1nc(-c2cnn(C(F)F)c2)c(O[C@H]2CCN3C(=O)OC[C@@H]3C2)cc1C(=O)NCc1ccc(C#N)cc1 [Compound 56]
Not satisfied

# strict comparison: is reported IC50 < 5 nM? input = COc1nc(C)c(O[C@H]2CCN3C(=O)OC[C@@H]3C2)cc1C(=O)NCc1ccc(Cl)cc1 [Compound 8]
Not satisfied

Please indicate whether the reported IC50 of COc1nc(-c2cnn(C(F)F)c2)c(O[C@H]2CCN3C(=O)OC[C@@H]3C2)cc1C(=O)NCc1ccc(C#N)c(F)c1 [Compound 58] is strictly below 5 nM.
Satisfied

---

# Target System: Human cytomegalovirus DNA polymerase (Human cytomegalovirus)
# Construct: made in house; host or cells: SF21 insect cells (baculovirus vector)
# Sequence (P08546 whole entry): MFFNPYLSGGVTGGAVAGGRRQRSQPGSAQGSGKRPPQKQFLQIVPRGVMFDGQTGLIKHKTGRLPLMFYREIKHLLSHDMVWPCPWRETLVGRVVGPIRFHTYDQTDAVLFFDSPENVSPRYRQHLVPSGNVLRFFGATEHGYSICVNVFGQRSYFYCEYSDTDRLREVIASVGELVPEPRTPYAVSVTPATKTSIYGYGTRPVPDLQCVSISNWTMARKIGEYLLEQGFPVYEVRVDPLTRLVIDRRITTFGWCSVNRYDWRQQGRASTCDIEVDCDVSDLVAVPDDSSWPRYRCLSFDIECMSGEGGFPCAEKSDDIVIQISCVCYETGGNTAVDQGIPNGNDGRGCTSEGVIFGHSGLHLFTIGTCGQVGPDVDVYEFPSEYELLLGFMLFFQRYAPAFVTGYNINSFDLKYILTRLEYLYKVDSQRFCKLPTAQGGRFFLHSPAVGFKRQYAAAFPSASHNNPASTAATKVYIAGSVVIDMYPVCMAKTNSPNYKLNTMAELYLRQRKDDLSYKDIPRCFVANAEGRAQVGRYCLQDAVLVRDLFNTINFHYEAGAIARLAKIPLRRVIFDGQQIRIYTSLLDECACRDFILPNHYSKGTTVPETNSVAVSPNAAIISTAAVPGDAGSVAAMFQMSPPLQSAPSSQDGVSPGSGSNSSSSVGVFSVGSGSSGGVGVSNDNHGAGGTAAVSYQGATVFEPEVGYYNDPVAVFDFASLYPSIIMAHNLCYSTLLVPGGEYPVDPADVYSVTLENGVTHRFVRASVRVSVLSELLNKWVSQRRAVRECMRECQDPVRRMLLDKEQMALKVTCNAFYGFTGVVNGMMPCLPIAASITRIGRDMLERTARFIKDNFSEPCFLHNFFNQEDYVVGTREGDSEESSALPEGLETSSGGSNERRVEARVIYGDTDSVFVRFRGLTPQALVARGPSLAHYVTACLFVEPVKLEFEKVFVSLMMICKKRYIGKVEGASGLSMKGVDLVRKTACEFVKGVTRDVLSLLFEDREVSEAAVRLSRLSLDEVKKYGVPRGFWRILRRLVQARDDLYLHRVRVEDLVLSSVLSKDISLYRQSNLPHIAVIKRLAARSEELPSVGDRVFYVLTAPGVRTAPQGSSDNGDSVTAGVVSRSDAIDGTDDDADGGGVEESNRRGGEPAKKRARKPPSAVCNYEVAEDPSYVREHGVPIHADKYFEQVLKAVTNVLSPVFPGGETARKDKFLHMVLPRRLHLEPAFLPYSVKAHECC
# Protocol Notes: CMV polymerase assay (AlphaLISA)
# Format: biochemical
# Study Conditions: HCMV polymerase 0.2 nM; 30 min pre-incubation; 60 min at 37° C.; read-out: CMV (IC50)
# Lookup of reported pIC50 keyed by entry
pIC50 field: float, defined as -log10 of concentration (mol/L).

Known results for molecules:
{"Given Smiles": "COc1nc(-c2cnn(Cc3ccccn3)c2)c(O[C@H]2CCN3C(=O)OC[C@@H]3C2)cc1C(=O)NCc1ccc(Cl)cc1", "pIC50": 7.92}
{"Given Smiles": "CC(C)(O)COc1nc(-c2cnn(C(F)F)c2)c(O[C@H]2CCN3C(=O)OC[C@@H]3C2)cc1C(=O)NCc1ccc(Cl)cc1", "pIC50": 8.05}

Consider now this further molecule.
State its pIC50 for this molecule: `COc1nc(-c2cnc3[nH]ccc3c2)c(O[C@H]2CCN3C(=O)OC[C@@H]3C2)cc1C(=O)NCc1ccc(Cl)cc1`
7.77
